# Test System: P2Y purinoceptor 4 (Homo sapiens, UniProt P51582)
# Sequence (P51582 whole entry): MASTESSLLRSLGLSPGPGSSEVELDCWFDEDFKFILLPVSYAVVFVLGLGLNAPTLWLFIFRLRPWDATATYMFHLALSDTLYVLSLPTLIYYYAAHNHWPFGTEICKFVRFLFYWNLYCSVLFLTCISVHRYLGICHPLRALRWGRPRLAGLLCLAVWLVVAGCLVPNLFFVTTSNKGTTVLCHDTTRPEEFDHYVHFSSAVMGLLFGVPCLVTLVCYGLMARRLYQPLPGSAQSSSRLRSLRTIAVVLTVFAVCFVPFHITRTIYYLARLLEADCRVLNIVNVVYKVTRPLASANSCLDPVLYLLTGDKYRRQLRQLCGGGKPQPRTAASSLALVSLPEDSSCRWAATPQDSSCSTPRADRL
# Assay Comment: Antagonist activity at human P2Y4 receptor transfected in human 1321N1 cells assessed as inhibition of UTP-activated intracellular calcium mobilization at 30 uM preincubated for 30 mins followed by UTP addition by fluo-4-dye based fluorescence assay
# Type: functional, cell-based
Would you mind telling me the reported inhibition of each entry?
Put your answer as a value accompanied by its unit after it.

*Q* Quick one: inhibition of `COc1cccc(Nc2cc(S(=O)(=O)O)c(N)c3c2C(=O)c2ccccc2C3=O)c1` ?
*A* 77%

*Q* Then `Cc1cc(Nc2cccc(F)c2)c2c(c1N)C(=O)c1ccccc1C2=O` ?
*A* -4%

*Q* Then `COc1cccc(Nc2cc(C)c(N)c3c2C(=O)c2ccccc2C3=O)c1` ?
*A* 38%

*Q* Then `Nc1c(S(=O)(=O)O)cc(Nc2ccc([N+](=O)[O-])cc2C(=O)O)c2c1C(=O)c1ccccc1C2=O` ?
*A* 30%

*Q* Then `Nc1c(S(=O)(=O)O)cc(Nc2ccc(Br)cc2C(=O)O)c2c1C(=O)c1ccccc1C2=O` ?
*A* 30%

*Q* Then `Nc1c(S(=O)(=O)O)cc(Nc2ccc(C(=O)O)cc2)c2c1C(=O)c1ccccc1C2=O` ?
*A* 57%
